TESTED_TARGET: human EHMT2 913-1193 (Homo sapiens)
Construct: recombinant purified human EHMT2 913-1193, Viva; purchased Viva
Sequence (Q96KQ7 913-1193): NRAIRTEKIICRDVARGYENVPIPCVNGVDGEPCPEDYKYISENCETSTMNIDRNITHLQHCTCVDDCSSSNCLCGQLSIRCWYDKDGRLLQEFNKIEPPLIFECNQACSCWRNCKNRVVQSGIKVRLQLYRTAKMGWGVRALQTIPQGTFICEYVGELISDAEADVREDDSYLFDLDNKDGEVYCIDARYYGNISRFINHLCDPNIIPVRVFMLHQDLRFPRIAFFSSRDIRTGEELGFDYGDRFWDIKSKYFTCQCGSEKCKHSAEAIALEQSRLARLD
TEST_DETAILS: EHMT2 enzyme assay on histone peptide substrate (EHMT2 PEP)
Format: biochemical
SETUP_CONDITIONS: Table II; read-out: EHMT2 PEP (IC50 μM)
ASSAY_ENDPOINT: IC50

GET /values?readout=IC50&item= COc1ccc(Nc2nccc(NCc3ccc4nccn4c3)n2)cc1OCCCN1CCCC1
< 0.1 µM

Follow-up item: COc1ccc(Nc2nccc(NCC3CCOCC3)n2)cc1NCCCN1CCCC1
0.1 to 1 µM

Follow-up item: COc1ccc(Nc2nccc(-c3c[nH]nc3C)n2)cc1OCCCN1CCCC1
> 10 µM

Follow-up item: COc1ccc(Nc2nccc(-n3cc(C)cn3)n2)cc1OCCCN1CCCC1
> 10 µM

Follow-up item: COc1ccc(Nc2ncc(C)c(NCC3CCN(C(C)=O)CC3)n2)cc1OCCCN1CCCC1
0.1 to 1 µM

Follow-up item: COc1ccc(Nc2cccc3ncnn23)cc1OCCCN1CCCC1
> 10 µM

Follow-up item: CNc1nc(Nc2ccc(OC)c(OCCCN3CCCC3)c2)ncc1F
1 to 10 µM

Follow-up item: CNc1nc(Nc2ccc(OC)c(OCCCN3CCCC3)c2)nc(C)c1F
0.1 to 1 µM

Follow-up item: COc1ccc(Nc2nccc(N(C)C)n2)cc1OCCCN1CCCC1
1 to 10 µM

Follow-up item: CCCCNc1nccc(NCC2CCC(N)CC2)n1 (stereo not drawn)
> 10 µM

Follow-up item: COc1ccc(Nc2cc(CNC3CCOCC3)n(C)n2)cc1OCCCN1CCCC1
> 10 µM

Follow-up item: CCCCNc1nccc(C(N)=O)n1
> 10 µM

Follow-up item: CNc1ccnc(Nc2ccc(OC)c(OCCCN3CC[C@@H](F)C3)c2)n1
0.1 to 1 µM

Follow-up item: CCCCNc1nccc(NCC2CCOCC2)n1
> 10 µM

Follow-up item: COc1ccc(Nc2nccc(NCCCN(C)C(C)=O)n2)cc1OCCCN1CCCC1
0.1 to 1 µM

Follow-up item: COc1ccc(Nc2nccc(-c3cnn(C)c3)n2)cc1OCCCN1CCCC1
> 10 µM

Follow-up item: COc1ccc(Nc2nccc(NCc3ccncc3)n2)cc1OCCCN1CCCC1
< 0.1 µM

Follow-up item: CCCCNc1nccc(NCCCN2CCCC2)n1
> 10 µM

Follow-up item: CNc1nccc(Nc2ccc(OC)c(OCCCN3CCCC3)c2)n1
0.1 to 1 µM

Follow-up item: COc1ccc(Nc2cc(CNC3CCNCC3)n(C)n2)cc1OCCCN1CCCC1
> 10 µM

Follow-up item: CNCc1cnc(Nc2ccc(OC)c(OCCCN3CCCC3)c2)nc1
> 10 µM

Follow-up item: COc1ccc(Nc2nccc(NCC3CCN(CC(F)(F)F)CC3)n2)cc1OCCCN1CCCC1
< 0.1 µM

Follow-up item: COc1ccc(Nc2nccc(NCC3CCOCC3)n2)cc1OC1CC2(C1)CN(C)C2
> 10 µM

Follow-up item: COc1ccc(Nc2nccc(N3CCN(c4ccccn4)CC3)n2)cc1OCCCN1CCCC1
> 10 µM

Follow-up item: COc1ccc(Nc2nccc(OCC3CCN(C(C)=O)CC3)n2)cc1OCCCN1CCCC1
> 10 µM

Follow-up item: COc1ccc(Nc2nccc(NCC3CCN(C(C)=O)CC3)n2)cc1NC(=O)CCN1CCCC1
1 to 10 µM

Follow-up item: CCCCNc1ccnc(NCCCN)n1
> 10 µM
